Target: CDK2 (UniProt P24941)
Experiment: Enzyme Assay
# IC50 values compiled below

>>> df
                            molecule_smiles          system_tested         val
0  COc1ccccc1-c1cc(Nc2ccc(C(=O)N[C@@H]3CCCC[C@@H]3N)cc2)ncn1.COc1ccccc1-c1cc(Nc2ccc(C(=O)N[C@H]3CCCC[C@H]3N)cc2)ncn1  CDK2 (UniProt P24941)  1 to 10 µM

Switching to the query record.
Data request: Data request, read-out IC50, for COc1ccccc1-c1cc(Nc2ccc(NC(=O)CC(C)(C)C)cc2)ncn1
Data returned: 1 to 10 µM
